target.or.system: T1, Recombinant human MASP1 enzyme (fragment corresponding to amino acids 297-699, C-terminal His Tag) (human, UniProt P48740 297-699)
T1 sequence: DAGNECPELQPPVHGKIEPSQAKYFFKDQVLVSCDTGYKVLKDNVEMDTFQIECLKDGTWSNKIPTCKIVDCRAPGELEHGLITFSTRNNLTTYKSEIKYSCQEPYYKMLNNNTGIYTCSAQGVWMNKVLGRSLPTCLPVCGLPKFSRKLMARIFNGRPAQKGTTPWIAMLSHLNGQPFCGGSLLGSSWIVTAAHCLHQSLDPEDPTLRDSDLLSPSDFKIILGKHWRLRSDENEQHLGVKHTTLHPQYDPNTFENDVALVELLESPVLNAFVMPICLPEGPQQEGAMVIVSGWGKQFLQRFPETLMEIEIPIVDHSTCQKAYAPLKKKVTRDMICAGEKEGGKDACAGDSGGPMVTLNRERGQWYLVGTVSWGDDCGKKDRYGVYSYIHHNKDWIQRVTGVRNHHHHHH
procedure.text: cell-based or functional assay
Numbered stars: 1 amine (or outer) side, 2 acyl side, 3 side chain; on linkers, the order of the positions; unused ones are H or OH. Bridge positions count the residues as written; N and C are the ends. Square brackets hold non-standard residues; d marks the D form. Ends that are not written are not given here. Leu(4-F) = 4-fluoroleucine, CC(C)(F)C[C@H](N[*:1])C(=O)[*:2]; Oic = O=C(O)[C@@H]1C[C@@H]2CCCC[C@@H]2N1; tBuAla = CC(C)(C)C[C@H](N)C(=O)O; Pen = CC(C)(S)[C@H](N)C(=O)O; ΔPro = O=C(O)[C@@H]1C=CCN1; NMeC = CN[C@@H](CS)C(=O)O; Sar = CNCC(=O)O
metric: human MASP1 IC50 (nM)
Write the number in nM without appending the unit.

Some binders with known human MASP1 IC50 results, for comparison:
[[record]]
binder = "AICSRS[tBuAla]P[Oic]I[NMeC]I-OH (disulfide 3-11; N-terminus assumed; SMILES CC[C@H](C)[C@H](NC(=O)[C@@H]1CSSC[C@H](NC(=O)[C@@H](NC(=O)[C@H](C)N)[C@@H](C)CC)C(=O)N[C@@H](CO)C(=O)N[C@@H](CCCNC(=N)N)C(=O)N[C@@H](CO)C(=O)N[C@@H](CC(C)(C)C)C(=O)N2CCC[C@H]2C(=O)N2[C@@H](C[C@@H]3CCCC[C@@H]32)C(=O)N[C@@H]([C@@H](C)CC)C(=O)N1C)C(=O)O) [AIC+SRS-((tBu)A)-P-(Oic)-I-((N-Me)C)+I-OH]"
metric = "human MASP1 IC50"
endpoint_result = 4.4

[[record]]
binder = "AICSRSL[ΔPro][Oic]I[Pen]IPD-OH (disulfide 3-11; N-terminus assumed; SMILES CC[C@H](C)[C@H](NC(=O)[C@H](C)N)C(=O)N[C@H]1CSSC(C)(C)[C@@H](C(=O)N[C@H](C(=O)N2CCC[C@H]2C(=O)N[C@@H](CC(=O)O)C(=O)O)[C@@H](C)CC)NC(=O)[C@H]([C@@H](C)CC)NC(=O)[C@@H]2C[C@@H]3CCCC[C@@H]3N2C(=O)[C@@H]2C=CCN2C(=O)[C@H](CC(C)C)NC(=O)[C@H](CO)NC(=O)[C@H](CCCNC(=N)N)NC(=O)[C@H](CO)NC1=O) [AIC+SRSL-(L-dehydroproline)-(Oic)-I-(Pen)+IPD-OH]"
metric = "human MASP1 IC50"
endpoint_result = 9.3

[[record]]
binder = "[Sar]ICSRSLP[Oic]I[Pen]IPE-OH (disulfide 3-11; N-terminus assumed; SMILES CC[C@H](C)[C@H](NC(=O)CNC)C(=O)N[C@H]1CSSC(C)(C)[C@@H](C(=O)N[C@H](C(=O)N2CCC[C@H]2C(=O)N[C@@H](CCC(=O)O)C(=O)O)[C@@H](C)CC)NC(=O)[C@H]([C@@H](C)CC)NC(=O)[C@@H]2C[C@@H]3CCCC[C@@H]3N2C(=O)[C@@H]2CCCN2C(=O)[C@H](CC(C)C)NC(=O)[C@H](CO)NC(=O)[C@H](CCCNC(=N)N)NC(=O)[C@H](CO)NC1=O) [((N-Me)G)-IC+SRSLP-(Oic)-I-(Pen)+IPE-OH]"
metric = "human MASP1 IC50"
endpoint_result = 6.2


Turning to the following binder.
Supply reported human MASP1 IC50 belonging to this binder: AICSRS[Leu(4-F)]PPICIPD-NH2 (disulfide 3-11; N-terminus assumed; SMILES CC[C@H](C)[C@H](NC(=O)[C@H](C)N)C(=O)N[C@H]1CSSC[C@@H](C(=O)N[C@H](C(=O)N2CCC[C@H]2C(=O)N[C@@H](CC(=O)O)C(N)=O)[C@@H](C)CC)NC(=O)[C@H]([C@@H](C)CC)NC(=O)[C@@H]2CCCN2C(=O)[C@@H]2CCCN2C(=O)[C@H](CC(C)(C)F)NC(=O)[C@H](CO)NC(=O)[C@H](CCCNC(=N)N)NC(=O)[C@H](CO)NC1=O) [AIC+SRS-((4-Fluoro)L)-PPIC+IPD-NH2] 8.9
